Data provenance: ChEMBL document CHEMBL2440076

test system: OVCAR-4; assay: Growth inhibition of human OVCAR4 cells assessed as cell growth at 10 uM after 48 hrs by sulforhodamine B assay; type: functional; conditions: OVCAR-4, 48 h, read-out: Activity
Assay metric: growth at 10 µM
State the value, then name its unit.

Asked: Request the reported growth at 10 µM associated with Cc1cc(C(=O)Nc2cccc(-n3cc(-c4ccncc4)c(-c4ccc(Cl)c(O)c4)n3)c2)ccc1Br
Given back: 108%

Asked: Request the reported growth at 10 µM associated with O=C(Nc1cccc(-n2cc(-c3ccncc3)c(-c3ccc(Cl)c(O)c3)n2)c1)c1ccc(Cl)c(C(F)(F)F)c1
Given back: 111%

Asked: Request the reported growth at 10 µM associated with COc1cc(-c2nn(-c3cccc(NC(=O)c4ccc(Cl)c(C(F)(F)F)c4)c3)cc2-c2ccncc2)ccc1Cl
Given back: 66%

Asked: Request the reported growth at 10 µM associated with COc1cc(-c2nn(-c3cccc(NC(=O)c4ccc(N5CCOCC5)c(C(F)(F)F)c4)c3)cc2-c2ccncc2)ccc1Cl
Given back: 52.6%

----------
test: Growth inhibition of human Hs 578T cells assessed as cell growth at 5X10'-8 M after 48 hrs by sulforhodamine B assay; type: functional; conditions: read-out: Activity
Please go through the items and note down their growth at 0.05 µM.
State the value, then name its unit.

Asked: Request the reported growth at 0.05 µM associated with COc1cc(-c2nn(-c3cccc(NC(=O)Nc4cccc(C(F)(F)F)c4)c3)cc2-c2ccncc2)ccc1Cl
Given back: 96%

Asked: Request the reported growth at 0.05 µM associated with O=C(Nc1cccc(-n2cc(-c3ccncc3)c(-c3ccc(Cl)c(O)c3)n2)c1)c1ccc(N2CCOCC2)c(C(F)(F)F)c1
Given back: 87%

Asked: Request the reported growth at 0.05 µM associated with COc1cc(-c2nn(-c3cccc(NC(=O)Nc4cc(C(F)(F)F)cc(C(F)(F)F)c4)c3)cc2-c2ccncc2)ccc1Cl
Given back: 93%

Asked: Request the reported growth at 0.05 µM associated with O=C(Nc1cccc(-n2cc(-c3ccncc3)c(-c3ccc(Cl)c(O)c3)n2)c1)Nc1cc(C(F)(F)F)cc(C(F)(F)F)c1
Given back: 94%

----------
test system: RXF 393; assay: Growth inhibition of human RXF393 cells after 48 hrs by sulforhodamine B assay; assay type: functional; settings: RXF 393, 48 h
So basically: TGI at 6 µM or higher? That is criterion met. Lower than 6 µM? That is criterion not met.

Asked: Form field: TGI at least 6 µM? Entry: COc1cc(-c2nn(-c3cccc(NC(=O)Nc4ccc(Cl)c(C(F)(F)F)c4)c3)cc2-c2ccncc2)ccc1Cl
Given back: criterion met

Asked: Form field: TGI at least 6 µM? Entry: COc1cc(-c2nn(-c3cccc(NC(=O)c4ccccc4)c3)cc2-c2ccncc2)ccc1Cl
Given back: criterion met

Asked: Form field: TGI at least 6 µM? Entry: O=C(Nc1cccc(-n2cc(-c3ccncc3)c(-c3ccc(Cl)c(O)c3)n2)c1)Nc1ccc(Cl)c(Cl)c1
Given back: criterion met

Asked: Form field: TGI at least 6 µM? Entry: COc1cc(-c2nn(-c3cccc(NC(=O)Nc4cc(C(F)(F)F)cc(C(F)(F)F)c4)c3)cc2-c2ccncc2)ccc1Cl
Given back: criterion not met

Asked: Form field: TGI at least 6 µM? Entry: O=C(Nc1cccc(-n2cc(-c3ccncc3)c(-c3ccc(Cl)c(O)c3)n2)c1)Nc1ccc(Cl)c(C(F)(F)F)c1
Given back: criterion not met

----------
Please go through the items and note down their LC50.
system: LOX IMVI; assay: Growth inhibition of human LOXIMVI cells after 48 hrs by sulforhodamine B assay; type: functional
Entry rule: numbers only, all in µM.

Asked: Request the reported LC50 associated with COc1cc(-c2nn(-c3cccc(NC(=O)Nc4cccc(C(F)(F)F)c4)c3)cc2-c2ccncc2)ccc1Cl
Given back: 3.46

Asked: Request the reported LC50 associated with O=C(Nc1cccc(-n2cc(-c3ccncc3)c(-c3ccc(Cl)c(O)c3)n2)c1)c1ccc(N2CCOCC2)c(C(F)(F)F)c1
Given back: 44.8

Asked: Request the reported LC50 associated with O=C(Nc1cccc(-n2cc(-c3ccncc3)c(-c3ccc(Cl)c(O)c3)n2)c1)Nc1cc(C(F)(F)F)cc(C(F)(F)F)c1
Given back: 2.75

Asked: Request the reported LC50 associated with COc1cc(-c2nn(-c3cccc(NC(=O)Nc4cc(C(F)(F)F)cc(C(F)(F)F)c4)c3)cc2-c2ccncc2)ccc1Cl
Given back: 2.94

----------
Please go through the items and note down their growth at 10 µM.
tested on: K562; experiment: Growth inhibition of human K562 cells assessed as cell growth at 10 uM after 48 hrs by sulforhodamine B assay; type: functional; details: K562, 48 h, read-out: Activity
Entry rule: numbers only, all in %.

Asked: Request the reported growth at 10 µM associated with COc1cc(-c2nn(-c3cccc(NC(=O)Nc4ccccc4)c3)cc2-c2ccncc2)ccc1Cl
Given back: 45.4

Asked: Request the reported growth at 10 µM associated with Cc1cc(C(=O)Nc2cccc(-n3cc(-c4ccncc4)c(-c4ccc(Cl)c(O)c4)n3)c2)ccc1Br
Given back: 91.4

Asked: Request the reported growth at 10 µM associated with O=C(Nc1cccc(-n2cc(-c3ccncc3)c(-c3ccc(Cl)c(O)c3)n2)c1)Nc1ccc(Cl)c(C(F)(F)F)c1
Given back: -20.8

Asked: Request the reported growth at 10 µM associated with O=C(Nc1cccc(-n2cc(-c3ccncc3)c(-c3ccc(Cl)c(O)c3)n2)c1)c1ccc(Cl)c(C(F)(F)F)c1
Given back: 105

Asked: Request the reported growth at 10 µM associated with O=C(Nc1cccc(-n2cc(-c3ccncc3)c(-c3ccc(Cl)c(O)c3)n2)c1)Nc1ccc(Cl)c(Cl)c1
Given back: 11.4

----------
Please go through the items and note down their growth at 10 µM.
tested on: OVCAR-5; experiment: Growth inhibition of human OVCAR5 cells assessed as cell growth at 10 uM after 48 hrs by sulforhodamine B assay; type: functional; conditions: OVCAR-5, 48 h, read-out: Activity
Entry rule: numbers only, all in %.

Asked: Request the reported growth at 10 µM associated with O=C(Nc1cccc(-n2cc(-c3ccncc3)c(-c3ccc(Cl)c(O)c3)n2)c1)c1ccc(Cl)c(C(F)(F)F)c1
Given back: 99.6

Asked: Request the reported growth at 10 µM associated with COc1cc(-c2nn(-c3cccc(NC(=O)c4ccccc4)c3)cc2-c2ccncc2)ccc1Cl
Given back: 66.4

Asked: Request the reported growth at 10 µM associated with COc1cc(-c2nn(-c3cccc(NC(=O)Nc4cc(C(F)(F)F)cc(C(F)(F)F)c4)c3)cc2-c2ccncc2)ccc1Cl
Given back: 16.3

Asked: Request the reported growth at 10 µM associated with COc1cc(-c2nn(-c3cccc(NC(=O)Nc4ccc(Cl)c(C(F)(F)F)c4)c3)cc2-c2ccncc2)ccc1Cl
Given back: 35.8

Asked: Request the reported growth at 10 µM associated with COc1cc(-c2nn(-c3cccc(NC(=O)Nc4cccc(C(F)(F)F)c4)c3)cc2-c2ccncc2)ccc1Cl
Given back: 28.2

----------
tested on: NCI-H460; experiment: Growth inhibition of human NCI-H460 cells after 48 hrs by sulforhodamine B assay; format: functional; settings: NCI-H460, 48 h
Please go through the items and note down their TGI.
Entry rule: numbers only, all in µM.

Asked: Request the reported TGI associated with O=C(Nc1cccc(-n2cc(-c3ccncc3)c(-c3ccc(Cl)c(O)c3)n2)c1)c1ccc(N2CCOCC2)c(C(F)(F)F)c1
Given back: 14.8

Asked: Request the reported TGI associated with COc1cc(-c2nn(-c3cccc(NC(=O)Nc4ccc(Cl)c(C(F)(F)F)c4)c3)cc2-c2ccncc2)ccc1Cl
Given back: 4.79

Asked: Request the reported TGI associated with COc1cc(-c2nn(-c3cccc(NC(=O)Nc4cc(C(F)(F)F)cc(C(F)(F)F)c4)c3)cc2-c2ccncc2)ccc1Cl
Given back: 1.87

Asked: Request the reported TGI associated with COc1cc(-c2nn(-c3cccc(NC(=O)Nc4cccc(C(F)(F)F)c4)c3)cc2-c2ccncc2)ccc1Cl
Given back: 3.53

----------
system: SNB-19; assay: Growth inhibition of human SNB19 cells assessed as cell growth at 10 uM after 48 hrs by sulforhodamine B assay; assay type: functional; conditions: SNB-19, 48 h, read-out: Activity
Assay metric: growth at 10 µM (%)
Entry rule: numbers only, all in %.

Asked: Kindly state the measured growth at 10 µM obtained for COc1cc(-c2nn(-c3cccc(NC(=O)c4ccccc4)c3)cc2-c2ccncc2)ccc1Cl with SNB-19.
Given back: 50

Asked: Kindly state the measured growth at 10 µM obtained for COc1cc(-c2nn(-c3cccc(NC(=O)c4cccc(C(F)(F)F)c4)c3)cc2-c2ccncc2)ccc1Cl with SNB-19.
Given back: 47.3

Asked: Kindly state the measured growth at 10 µM obtained for O=C(Nc1cccc(-n2cc(-c3ccncc3)c(-c3ccc(Cl)c(O)c3)n2)c1)Nc1ccc(Cl)c(Cl)c1 with SNB-19.
Given back: 30.3

Asked: Kindly state the measured growth at 10 µM obtained for COc1cc(-c2nn(-c3cccc(NC(=O)c4ccc(N5CCOCC5)c(C(F)(F)F)c4)c3)cc2-c2ccncc2)ccc1Cl with SNB-19.
Given back: 45.1

Asked: Kindly state the measured growth at 10 µM obtained for COc1cc(-c2nn(-c3cccc(NC(=O)Nc4ccccc4)c3)cc2-c2ccncc2)ccc1Cl with SNB-19.
Given back: 89.5
